# System: recombinant NL-RLuc virus (HIV NL4-3 with Renilla Luciferase) in MT-2 cells
# TEST_DESCRIPTION: Inhibition of HIV replication (NL-RLuc virus in MT-2 cells, luciferase readout)
# Format: cell-based
# TEST_CONDITIONS: NL-RLuc virus, MT-2 cells, 5 days of incubation, 10% FBS, luciferase; read-out: EC50
# Source text: Inhibition of HIV Replication: A recombinant NL-RLuc proviral clone was constructed in which a section of the nef gene from NL4-3 was replaced with the Renilla Luciferase gene. […] In addition, the luciferous reporter provides a simple and easy method for quantitating the extent of virus growth and consequently, the antiviral activity of test compounds. […] Luciferase was quantitated using the Dual Luciferase kit from Promega (Madison, Wis.). […]
MEASURED_ENDPOINT: EC50 (nM)
Give bare numbers, in nM.

Entry Cc1nc2nc3cn2c(c1[C@H](OC(C)(C)C)C(=O)O)N1CCC(C)(CC1)OCCCCC(C)Oc1ccc(F)cc1-c1cccc-3c1 (stereo partly shown) [Example 2] : EC50 on recombinant NL-RLuc virus (HIV NL4-3 with Renilla Luciferase) in MT-2 cells = 8

---

# System: recombinant NL-RLuc virus (HIV NL4-3 with Renilla Luciferase) in MT-2 cells
# TEST_DESCRIPTION: Inhibition of HIV replication (NL-RLuc virus in MT-2 cells, luciferase readout)
# Format: cell-based
# TEST_CONDITIONS: MT2, 120 h
# Description: Inhibition of HIV Replication: A recombinant NL-RLuc proviral clone was constructed in which a section of the nef gene from NL4-3 was replaced with the Renilla Luciferase gene. […] In addition, the luciferous reporter provides a simple and easy method for quantitating the extent of virus growth and consequently, the antiviral activity of test compounds. […] Luciferase was quantitated using the Dual Luciferase kit from Promega (Madison, Wis.). […]
MEASURED_ENDPOINT: pEC50
Numbers only, as −log10 of the molar value.

pEC50 measured on Cc1ccc2c(c1)-c1cccc(c1)-c1cn3c(c([C@H](OC(C)(C)C)C(=O)O)c(C)nc3n1)N1CCC(C)(CC1)OCCCC[C@H](C)O2 [Example 1] = 8.10
